Molecular target: HLA-A*03:01
Test: IEDB peptide-MHC binding, purified MHC/direct/fluorescence; filed as Kd, often an IC50 or EC50 that approximates it; bounds were set here for any values at or beyond the usual limits of such assays
Conditions: source organism: Mammarenavirus juninense
readout.kind: Kd (nM)
Entry rule: numbers only, all in nM.

response.value for SLFNRGRLK (field: Kd) = 42.4

###

Target: HLA-A*30:02
Assay: IEDB peptide-MHC binding, purified MHC/competitive/radioactivity; filed as Kd, often an IC50 or EC50 that approximates it; bounds were set here for any values at or beyond the usual limits of such assays
Settings: source organism: Mammarenavirus whitewaterense
readout.kind: Kd

{"columns": ["query.sequence", "Kd"],
 "data": [
  ["TKHPSLNII", "≥ 76.9 µM"]
]}

response.value for HDHHFTPQI (field: Kd) = ≥ 76.9 µM
